This document collects pIC50 values reported for UniProt P11802.
Sequence (P11802 whole entry): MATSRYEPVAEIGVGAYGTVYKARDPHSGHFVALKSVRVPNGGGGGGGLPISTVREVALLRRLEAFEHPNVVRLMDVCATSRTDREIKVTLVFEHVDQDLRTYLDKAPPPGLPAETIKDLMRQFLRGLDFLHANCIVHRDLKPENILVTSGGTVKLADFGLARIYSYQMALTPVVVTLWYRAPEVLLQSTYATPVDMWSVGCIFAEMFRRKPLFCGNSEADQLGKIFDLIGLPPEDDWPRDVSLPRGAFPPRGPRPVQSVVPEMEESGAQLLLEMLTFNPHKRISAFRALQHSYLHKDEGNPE
pIC50 here is simply -log10 of the concentration when that concentration is written in mol/L.

Assay UniProt P11802, sample O=C(Nc1ccccn1)Nc1cccc2c1[C@H]1CCCN1C2=O , pIC50 read: 8.70

Now turn to the next molecule.
Assay UniProt P11802, sample CN(C)CCNS(=O)(=O)c1ccc(Nc2cccc(-c3cnc4ccccn34)c2)cc1 , pIC50 read: 6.59

Origin of measurements: ChEMBL document CHEMBL1240533
